Measured values drawn from patent US9309242B2 for this set.

target: FGFR1 (h) (Homo sapiens, UniProt P11362); assay: FGFR1 (enzymatic assay), TR-FRET; format: biochemical; conditions: read-out: FGFR 1 pIC50 (converted)
Sequence (P11362 22-822): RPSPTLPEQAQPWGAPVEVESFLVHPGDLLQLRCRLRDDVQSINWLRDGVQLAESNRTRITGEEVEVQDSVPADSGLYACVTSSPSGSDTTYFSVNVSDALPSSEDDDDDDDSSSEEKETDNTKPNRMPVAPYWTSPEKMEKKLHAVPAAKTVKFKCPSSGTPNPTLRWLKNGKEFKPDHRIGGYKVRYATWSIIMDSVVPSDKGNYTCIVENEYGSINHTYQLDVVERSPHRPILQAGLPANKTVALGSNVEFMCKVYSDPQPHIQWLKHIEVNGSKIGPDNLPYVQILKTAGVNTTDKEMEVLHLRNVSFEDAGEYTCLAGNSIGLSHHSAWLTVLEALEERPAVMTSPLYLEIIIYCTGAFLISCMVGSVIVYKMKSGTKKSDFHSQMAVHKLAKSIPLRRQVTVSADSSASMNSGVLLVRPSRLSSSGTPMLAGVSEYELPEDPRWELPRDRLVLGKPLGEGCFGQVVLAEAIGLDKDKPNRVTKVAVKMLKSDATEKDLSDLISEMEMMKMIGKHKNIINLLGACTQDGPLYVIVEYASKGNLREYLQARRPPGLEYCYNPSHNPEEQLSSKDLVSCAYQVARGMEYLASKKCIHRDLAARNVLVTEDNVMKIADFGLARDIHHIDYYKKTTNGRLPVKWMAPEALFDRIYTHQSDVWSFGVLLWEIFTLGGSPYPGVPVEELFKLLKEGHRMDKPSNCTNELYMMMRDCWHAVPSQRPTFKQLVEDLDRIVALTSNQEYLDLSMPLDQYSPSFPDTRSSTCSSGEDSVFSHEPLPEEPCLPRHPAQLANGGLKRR
compounds and their reported IC50
The answer is to be given in nM; state only the numeric part.

Please review the following examples before continuing.
- COMPOUND: "COc1cc(OC)c(F)c(N(Cc2c[nH]nn2)c2ccc3ncc(-c4cnn(C)c4)nc3n2)c1"
  MEASUREMENT: 0.55
- COMPOUND: "CNCCn1/c(=N/c2c(F)c(OC)cc(OC)c2F)ccc2ncc(-c3cn[nH]c3)nc21"
  MEASUREMENT: 1.62
- COMPOUND: "COc1cc(OC)c(F)c(N(CCN)c2ccc3ncc(-c4cnn(C)c4)nc3n2)c1"
  MEASUREMENT: 1.7
- COMPOUND: "COc1cc(OC)cc(N(CC(C)(C)O)c2ccc3ncc(-c4cnn(C)c4)nc3n2)c1"
  MEASUREMENT: 14.5

IC50 measured on "COc1cc(/N=c2\ccc3ncc(-c4cnn(C)c4)nc3n2CCN2CCCC2=O)c(F)c(OC)c1" = 2.95

Reported IC50 for "COc1cc(OC)c(F)c(N(CC(=O)NC(C)C)c2ccc3ncc(-c4cnn(C)c4)nc3n2)c1" was 3.89

Quick note, IC50 for COc1cc(OC)c(F)c(N(CC2CCC(=O)N2)c2ccc3ncc(-c4cnn(CC(C)(C)O)c4)nc3n2)c1 (stereo not drawn) landed at 2.34

Measured IC50, "CCn1/c(=N/c2c(F)c(OC)cc(OC)c2F)ccc2ncc(-c3cnn(C)c3)nc21" : 0.331

Lookup result for COc1ccc(Cl)c(N(CC2CCC(=O)N2)c2ccc3ncc(-c4cnn(C)c4)nc3n2)c1Cl (single isomer, unassigned) [Compound 90] ; measured IC50: 166

Reported IC50 ( "COc1cc(OC)cc(N(CCN2CCOCC2)c2ccc3ncc(-c4cnn(C)c4)nc3n2)c1" ) = 6.76
